Test system: K-562 leukemia
assayNotes: NCI tumour cell line growth inhibition, 48 h
readoutLabel: TGI

stdin: Given the entry O=C(c1cccs1)c1nccc2c1cnc1ccccc12 , report its measured TGI.
stdout: > 100 µM

stdin: Also CC(=O)c1ccc2c(c1)N(CCCN1CCN(CCO)CC1)c1ccccc1S2 ?
stdout: > 23 µM

stdin: For O=[N+]([O-])c1ccc(C2ON=C(c3ccccc3)N2C23CC4CC(CC(C4)C2)C3)cc1 (configuration not stated) then?
stdout: > 10 µM

stdin: Can you check COc1ccc(-c2c(-c3ccccc3)c(C)c3ccccn23)cc1 next?
stdout: > 100 µM

stdin: One more compound: COC(=O)C(C(=O)C(=O)Nc1ccc(C)cc1C)c1csc(-n2nc(-c3ccccc3)cc2-c2ccccc2)n1 (configuration not stated)
stdout: > 100 µM

stdin: Again, but for COc1ccccc1-c1cc(=O)c2cc(C)c(C)c(C(=O)O)c2o1
stdout: > 100 µM

stdin: What do we get for O=C(c1ccc2ccccc2c1)c1nc2cc(F)ccc2[n+]([O-])c1C(F)(F)F ?
stdout: 15.4 µM

stdin: Proceed to CCCc1nc(Cl)nc(Cl)c1Cl
stdout: 0.118 µM

stdin: What do you have for N=c1oc2ccccc2cc1-c1nc2ccccc2[nH]1 ?
stdout: 82.6 µM

stdin: Quick one: N#Cc1c2ccc([N+](=O)[O-])cc2c(=O)n2c1[nH]c1ccc(C(F)(F)F)cc12
stdout: 45.7 µM

stdin: Again, but for O=C(/C=C1\Sc2ccccc2N=C1CC(=O)c1ccccc1)c1ccccc1
stdout: 20 µM

stdin: # iterate: CCCN(CCC)c1ccc(C=O)c(Cl)c1
stdout: > 100 µM

stdin: Param item: Cc1cc(N/N=C/c2nc(-c3ccc(Cl)cc3)oc2C)c2cc(Br)ccc2n1
stdout: 3.61 µM

stdin: Also, Cc1ccc(Cl)cc1N=NC(=O)NNc1cc(Cl)ccc1C please.
stdout: > 100 µM

stdin: // next record O=c1cc(-c2ccccc2)[nH]c2cc(F)cc(F)c12
stdout: > 100 µM

stdin: Another compound to check: CCOc1cc(/C=C/C(=O)C(C(=O)/C=C/c2ccc(OC(=O)CNc3nc4ccccc4[nH]3)c(OCC)c2)C(=O)CNc2nc3ccccc3[nH]2)ccc1OC(=O)CNc1nc2ccccc2[nH]1
stdout: 2.75 µM

stdin: Record: CC(=O)NC1(NC(C)=O)C2CC(C1Cc1ccccc1)C(C)(C)C2C (configuration not stated)
stdout: > 100 µM

stdin: What do you get for FC(F)(F)c1ccc(-c2nn3ncccc3c2-c2ccnc(Nc3ccc4c(c3)OCCO4)n2)cc1 ?
stdout: > 25 µM

stdin: Then what about the compound CC(C)(C)C(=O)Oc1ccc(/C=C/C(=O)c2ccc(OC(=O)C(C)(C)C)cc2)cc1 ?
stdout: 86.7 µM

stdin: # repeat for COc1ccc(/C=C2\C[C@H]3[C@@H]4CCC5=C/C(=N/O)CC[C@]5(C)[C@H]4CC[C@]3(C)\C2=N\O)cc1
stdout: > 100 µM

stdin: Entry N#CC1=C(N)N(/N=C/c2ccccc2)C(c2ccccc2)C1(C#N)C#N (configuration not stated) please
stdout: > 26 µM

stdin: Same read-out for CC1(C)OC(=S)N(c2ccccc2)C12C=Cc1cc3ccccc3nc1S2 (configuration not stated) ?
stdout: > 100 µM

stdin: Would you mind doing C1CCCCC2(CCCCCCCCC3(CCC1)SCCS3)SCCS2 as well?
stdout: > 100 µM

stdin: Would you mind doing CCOC(=O)C1Cc2ccc3c4c(ccc(c24)C1)CC(C(=O)OCC)C3 as well?
stdout: > 100 µM

stdin: Could you do the same for CC(O)c1cc2c(s1)C(=O)c1c(C(C)O)csc1C2=O (configuration not stated) , please?
stdout: 0.616 µM

stdin: What do you have for CN=C(Nc1ccc(OC)c2ccccc12)SC ?
stdout: > 10 µM

stdin: Now this one: O=C1c2ccccc2C(=O)C12CCc1ccccc12
stdout: > 100 µM

stdin: Try the compound O=C(N/N=C\c1cccc2ccccc12)Nc1ccccc1
stdout: > 100 µM

stdin: // next record Cc1nc2ccc(S(=O)(=O)NS(=O)(=O)c3ccc(-c4ccccc4)cc3)cc2c(=O)n1NS(=O)(=O)c1ccc(-c2ccccc2)cc1
stdout: > 100 µM

stdin: Another compound to look at: C=CC(C)(C)n1cc(C2=C(O)C(=O)C(c3cn(C(C)(C)C=C)c4ccccc34)=C(O)C2=O)c2ccccc21
stdout: > 100 µM

stdin: Param item: Clc1ccc(/C=C/c2ccc3ccccc3n2)cc1
stdout: > 100 µM

stdin: Same again, this time with CC(NC(=O)Cc1ccc(C(F)(F)P(=O)(OCc2ccc([N+](=O)[O-])o2)N(C)CCCCCl)cc1)c1ccc(OCC2CCCCC2)c(C(N)=O)c1 (configuration not stated)
stdout: 17.9 µM

stdin: # iterate: Clc1ccccc1CN1COc2c(ccc3cccnc23)C1
stdout: 4.51 µM

stdin: Now the same for O=c1nc2ccc([N+](=O)[O-])cc2[n+]([O-])[nH]1
stdout: > 100 µM

stdin: And then COc1cccc(CNc2ncnc3c2ncn3C2OC(CO)C(O)C2O)c1O (configuration not stated) , what is it?
stdout: > 100 µM

stdin: What about N#Cc1c(Cl)c2cccnc2n2c1nc1ccccc12 ?
stdout: 6.05 µM

stdin: Next entry: CN(C)N1C(=O)SCC(c2ccccc2)(c2ccccc2)C1=O
stdout: > 100 µM

stdin: Subsequent entry: Oc1[nH]c2ccccc2c1C1=Nc2ccccc2/C1=N\OCCOC1OCC(O)C(O)C1O (configuration not stated)
stdout: > 100 µM

stdin: Try the compound COc1ccc2c(O)c(S(=O)(=O)c3ccc(C)cc3)c(=O)oc2c1OC
stdout: > 100 µM

stdin: Next entry: O=C1/C(=C\c2ccco2)Oc2ccccc21
stdout: > 100 µM

stdin: Quick one: O=Cc1ccc(OC[C@H]2COC(=O)N2)cc1
stdout: > 100 µM

stdin: Queued: CC1(C)CO[P@@](=S)(c2ccccn2)O[C@@H]1c1ccccc1
stdout: > 100 µM

* * *

Test system: RXF 393 renal
assayNotes: NCI tumour cell line growth inhibition, 48 h
readoutLabel: TGI (µM)
Number in µM, nothing else.

stdin: Find the recorded TGI belonging to CCOC(=O)c1sc(-c2ccc(OS(=O)(=O)C[C@]34CCC(CC3=O)C4(C)C)c(C=O)c2)nc1C and report it.
stdout: 2.75

stdin: Try O=c1oc(-c2ccc(O)cc2)cc2cc(O)ccc12 next.
stdout: 54.4

stdin: Param item: COc1ccc(/C=C2\CCC(CCN(C)C)(C3=CCCC3)C2=O)cc1 (centres undefined)
stdout: 22.7

stdin: What about this compound? C=C1C(=O)O[C@H]2[C@H]1CC/C(COC(=O)N[C@H]1C[C@H](O[C@H]3C[C@](O)(C(=O)CO)Cc4c(O)c5c(c(O)c43)C(=O)c3c(OC)cccc3C5=O)O[C@@H](C)[C@H]1O)=C\CC[C@@]1(C)O[C@@H]21
stdout: 3.85

stdin: And for CC(=O)C(C(=O)c1ccc(C)cc1)[C@H]1OC(C)(C)O[C@H]1[C@H]1COC(C)(C)O1 (some centres undefined) ?
stdout: 9.01

stdin: Then this compound: Cc1ccc(O)c(C2=CC3=NNC(=O)C3C(c3cccc(Cl)c3)C2)c1 (centres undefined)
stdout: 9.62

stdin: What about this compound? CCOC(=O)c1cn2c(n1)sc1cc(OC)ccc12
stdout: 64.1

stdin: Note, next up: CC(C)(C)C(=O)Oc1ccc(/C=C/C(=O)c2ccc(OC(=O)C(C)(C)C)cc2)cc1
stdout: 87.3

stdin: Follow-up entry: CCOC(=O)c1ccc(NC(=O)NC2=NCCS2)cc1
stdout: 3.3

stdin: Request: COc1ccc(/C=C2\C[C@H]3[C@@H]4CCC5=C/C(=N/O)CC[C@]5(C)[C@H]4CC[C@]3(C)\C2=N\O)cc1
stdout: 98.8

* * *

Can you tell me TGI for the items I'm about to list?
Tested on: T-47D breast
assayNotes: NCI tumour cell line growth inhibition, 48 h
Expressed in µM, but write only the number.

stdin: Name the recorded TGI for CC(NC(=O)Cc1ccc(C(F)(F)P(=O)(OCc2ccc([N+](=O)[O-])o2)N(C)CCCCCl)cc1)c1ccc(OCC2CCCCC2)c(C(N)=O)c1 (stereo not given) .
stdout: 15

stdin: Ok, now O=C(/C=C1\Sc2ccccc2N=C1CC(=O)c1ccccc1)c1ccccc1
stdout: 75.5

stdin: Follow-up item: N#Cc1c(Cl)c2cccnc2n2c1nc1ccccc12
stdout: 4.79

stdin: Can you check COc1ccc(-c2nc(-c3nc4cc(Cl)c(F)cc4[nH]3)c3ccccn23)cc1 next?
stdout: 33.1

stdin: Further, for CC(O)c1cc2c(s1)C(=O)c1c(C(C)O)csc1C2=O (stereo not given) ?
stdout: 0.667

stdin: Now consider COc1ccc2c(c1)CN([C@@H](C)[C@H]1CC[C@H]3[C@@H]4CC[C@H]5C[C@@H](O)CC[C@]5(C)[C@H]4CC[C@]13C)CO2 and answer again.
stdout: 18.3

stdin: // query: COc1ccc(-c2c(C#N)c(N)nc(N3CCOCC3)c2C#N)cc1
stdout: 6.14

stdin: Same thing, different compound: CC(C)(C)NCC(O)COc1c(Br)c(Br)c(Br)c2c1OC(C)(C)C2 (stereo not given)
stdout: 3.59

stdin: Similarly, CCCc1nc(Cl)nc(Cl)c1Cl ?
stdout: 4.49

stdin: Another: C=CC(C)(C)n1cc(C2=C(O)C(=O)C(c3cn(C(C)(C)C=C)c4ccccc34)=C(O)C2=O)c2ccccc21
stdout: 23.1

stdin: Cool, now COc1cc(C(=O)Oc2c(C(C)=O)sc3c2c(=O)n(-c2ccccc2)c(=S)n3-c2ccccc2)cc(OC)c1OC
stdout: 99.6

stdin: What do you get for CCCC1(CN2c3ccccc3Sc3ccc(Cl)cc32)CCN(CC)C1 (stereo not given) ?
stdout: 5.03

stdin: Please do the same for O=C(CC1(O)C(=O)Nc2ccc(F)cc21)c1ccc(C(=O)NCC2CCC3(CC2)OOC2(CCCCC2)OO3)cc1 (stereo not given) as well.
stdout: 44.2

stdin: Next up: CCCCCCCCCc1ccc(OCCOCCOCCOCCOCCOCCOCCOCCOCCO)cc1
stdout: 2.75

stdin: Cool, now C/C(=C(/c1ccccc1)c1ccc(OCC(O)CNCCN2CCOCC2)cc1)c1ccccc1 (stereo not given)
stdout: 11.3

stdin: What about this compound? O=C(Nc1cccc2[nH]c(C(F)(F)F)nc12)c1cc(Cl)ccc1Cl
stdout: 6.43
